Target: NTCP (Homo sapiens, UniProt Q14973)
Assay: [3H]-TCA uptake assay (NTCP inhibition)
Format: cell-based
Conditions: IC50, given as a range, marked * (asterisk not explained)
measured_metric: IC50

CCC1NC(=O)C(C2OC(Oc3ccc(Cl)c(OCCOC)c3)CC2C)N(C)C(=O)C(C(C)C)N(C)C(=O)C(CC(C)C)N(C)C(=O)C(CC(C)C)N(C)C(=O)C(C)NC(=O)C(C)NC(=O)C(CC(C)C)N(C)C(=O)C(C(C)C)NC(=O)C(CC(C)C)N(C)C(=O)CN(C)C1=O (stereo not shown) [Compound 45A-o]    1 to 100 µM

IC50 lookup needed for CCC1NC(=O)C(C2OC(SCc3ccccc3OC)CC2C)N(C)C(=O)C(C(C)C)N(C)C(=O)C(CC(C)C)N(C)C(=O)C(CC(C)C)N(C)C(=O)C(C)NC(=O)C(C)NC(=O)C(CC(C)C)N(C)C(=O)C(C(C)C)NC(=O)C(CC(C)C)N(C)C(=O)CN(C)C1=O (stereo not shown) [Compound 82A-s] , thanks.
1 to 100 µM

IC50 lookup needed for CCC1NC(=O)C(C2OC(SCc3ccc(N4CCOCC4)cc3)CC2C)N(C)C(=O)C(C(C)C)N(C)C(=O)C(CC(C)C)N(C)C(=O)C(CC(C)C)N(C)C(=O)C(C)NC(=O)C(C)NC(=O)C(CC(C)C)N(C)C(=O)C(C(C)C)NC(=O)C(CC(C)C)N(C)C(=O)CN(C)C1=O (stereo not shown) [Compound 99A-s] , thanks.
1 to 100 µM

IC50 lookup needed for CCC1NC(=O)C(C2OC(Oc3cc(Cl)cc(OCC4CCOCC4)c3)CC2C)N(C)C(=O)C(C(C)C)N(C)C(=O)C(CC(C)C)N(C)C(=O)C(CC(C)C)N(C)C(=O)C(C)NC(=O)C(C)NC(=O)C(CC(C)C)N(C)C(=O)C(C(C)C)NC(=O)C(CC(C)C)N(C)C(=O)CN(C)C1=O (stereo not shown) [Compound 67-o] , thanks.
1 to 100 µM

---

Below, each entry is listed with its recorded IC50.
Target: NTCP (Homo sapiens)
Experiment: [3H]-TCA uptake assay (NTCP inhibition)
Format: cell-based
Conditions: given as a range; assay not given

CCC1NC(=O)C(C2OC(Sc3cccc(OCc4ccn(C)c(=O)c4)c3)CC2C)N(C)C(=O)C(C(C)C)N(C)C(=O)C(CC(C)C)N(C)C(=O)C(CC(C)C)N(C)C(=O)C(C)NC(=O)C(C)NC(=O)C(CC(C)C)N(C)C(=O)C(C(C)C)NC(=O)C(CC(C)C)N(C)C(=O)CN(C)C1=O (centres unmarked) [Compound 16A]    1000 to 10000 nM

Now examine the next entry.
IC50 lookup needed for CCCCc1ccc(SC2CC(C)C(C3C(=O)NC(CC)C(=O)N(C)CC(=O)N(C)C(CC(C)C)C(=O)NC(C(C)C)C(=O)N(C)C(CC(C)C)C(=O)NC(C)C(=O)NC(C)C(=O)N(C)C(CC(C)C)C(=O)N(C)C(CC(C)C)C(=O)N(C)C(C(C)C)C(=O)N3C)O2)cc1 (centres unmarked) [Compound 8A] , thanks.
1 to 1000 nM

---

Target: NTCP (Homo sapiens)
Test: [3H]-TCA uptake assay (NTCP inhibition)
Format: cell-based
Conditions: IC50, given as a range, marked * (asterisk not explained)
Below, each entry is listed with its recorded IC50.

CCC1NC(=O)C(C2OC(Oc3cccc(OCc4cccc(F)c4)c3)CC2C)N(C)C(=O)C(C(C)C)N(C)C(=O)C(CC(C)C)N(C)C(=O)C(CC(C)C)N(C)C(=O)C(C)NC(=O)C(C)NC(=O)C(CC(C)C)N(C)C(=O)C(C(C)C)NC(=O)C(CC(C)C)N(C)C(=O)CN(C)C1=O (centres unmarked) [Compound 20A-o]    1 to 100 µM

Now examine the next entry.
IC50 lookup needed for CCC1NC(=O)C(C2OC(SCc3cccc(N4CCOCC4)c3)CC2C)N(C)C(=O)C(C(C)C)N(C)C(=O)C(CC(C)C)N(C)C(=O)C(CC(C)C)N(C)C(=O)C(C)NC(=O)C(C)NC(=O)C(CC(C)C)N(C)C(=O)C(C(C)C)NC(=O)C(CC(C)C)N(C)C(=O)CN(C)C1=O (centres unmarked) , thanks.
1 to 100 µM

---

Target: NTCP (Homo sapiens, UniProt Q14973)
Experiment: [3H]-TCA uptake assay (NTCP inhibition)
Format: cell-based
Conditions: given as a range; assay not given
measured_metric: IC50

Please review the following examples before continuing.
CCC1NC(=O)C(C2OC(OCc3cccc(Cl)c3OC)CC2C)N(C)C(=O)C(C(C)C)N(C)C(=O)C(CC(C)C)N(C)C(=O)C(CC(C)C)N(C)C(=O)C(C)NC(=O)C(C)NC(=O)C(CC(C)C)N(C)C(=O)C(C(C)C)NC(=O)C(CC(C)C)N(C)C(=O)CN(C)C1=O (single isomer, unassigned) [Compound 88B]    1 to 1000 nM
CCC1NC(=O)C(C2OC(OCc3c(Cl)cccc3Cl)CC2C)N(C)C(=O)C(C(C)C)N(C)C(=O)C(CC(C)C)N(C)C(=O)C(CC(C)C)N(C)C(=O)C(C)NC(=O)C(C)NC(=O)C(CC(C)C)N(C)C(=O)C(C(C)C)NC(=O)C(CC(C)C)N(C)C(=O)CN(C)C1=O (single isomer, unassigned) [Compound 90B]    1 to 1000 nM

Now examine the next entry.
IC50 lookup needed for CCC1NC(=O)C(C2OC(OCc3ccc(Cl)cc3Cl)CC2C)N(C)C(=O)C(C(C)C)N(C)C(=O)C(CC(C)C)N(C)C(=O)C(CC(C)C)N(C)C(=O)C(C)NC(=O)C(C)NC(=O)C(CC(C)C)N(C)C(=O)C(C(C)C)NC(=O)C(CC(C)C)N(C)C(=O)CN(C)C1=O (single isomer, unassigned) [Compound 89A] , thanks.
1 to 1000 nM

---

Target: NTCP (Homo sapiens, UniProt Q14973)
Sequence (Q14973 1-349): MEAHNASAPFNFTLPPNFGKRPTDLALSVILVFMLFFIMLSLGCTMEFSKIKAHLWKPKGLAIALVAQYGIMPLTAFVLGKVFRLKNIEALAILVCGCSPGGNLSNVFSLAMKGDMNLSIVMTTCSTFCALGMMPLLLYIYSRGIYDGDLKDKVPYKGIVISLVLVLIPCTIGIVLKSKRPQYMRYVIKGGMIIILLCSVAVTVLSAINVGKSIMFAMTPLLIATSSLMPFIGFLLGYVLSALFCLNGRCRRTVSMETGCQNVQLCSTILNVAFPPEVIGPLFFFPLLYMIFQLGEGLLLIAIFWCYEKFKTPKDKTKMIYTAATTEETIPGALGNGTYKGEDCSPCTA
Test: [3H]-TCA uptake assay (NTCP inhibition)
Type: cell-based
Details: given as a range; assay not given
Below, each entry is listed with its recorded IC50.

CCC1NC(=O)C(C2OC(OCc3cc(Cl)ccc3Cl)CC2C)N(C)C(=O)C(C(C)C)N(C)C(=O)C(CC(C)C)N(C)C(=O)C(CC(C)C)N(C)C(=O)C(C)NC(=O)C(C)NC(=O)C(CC(C)C)N(C)C(=O)C(C(C)C)NC(=O)C(CC(C)C)N(C)C(=O)CN(C)C1=O (centres unmarked) [98A + B(1:1)]    1 to 1000 nM

Now examine the next entry.
Quick check: IC50 on NTCP (Homo sapiens, UniProt Q14973), item CCC1NC(=O)C(C2OC(Sc3ccc(Cl)c(OCc4ccccc4)c3)CC2C)N(C)C(=O)C(C(C)C)N(C)C(=O)C(CC(C)C)N(C)C(=O)C(CC(C)C)N(C)C(=O)C(C)NC(=O)C(C)NC(=O)C(CC(C)C)N(C)C(=O)C(C(C)C)NC(=O)C(CC(C)C)N(C)C(=O)CN(C)C1=O (centres unmarked) [Compound 44A] ?
1 to 1000 nM

---

Biological target: NTCP (Homo sapiens, UniProt Q14973)
Experiment: [3H]-TCA uptake assay (NTCP inhibition)
Format: cell-based
Conditions: IC50, given as a range, marked * (asterisk not explained)
measured_metric: IC50 (µM)
Quick note: give the figure in µM, leave out the unit.

IC50 lookup needed for CCC1NC(=O)C(C2OC(Oc3cccc(OCc4cccnc4)c3)CC2C)N(C)C(=O)C(C(C)C)N(C)C(=O)C(CC(C)C)N(C)C(=O)C(CC(C)C)N(C)C(=O)C(C)NC(=O)C(C)NC(=O)C(CC(C)C)N(C)C(=O)C(C(C)C)NC(=O)C(CC(C)C)N(C)C(=O)CN(C)C1=O (centres unmarked) [Compound 53A-o] , thanks.
10

---

Target: NTCP (Homo sapiens, UniProt Q14973)
Test: [3H]-TCA uptake assay (NTCP inhibition)
Type: cell-based
Conditions: IC50, given as a range, marked * (asterisk not explained)
pIC50: −log10 of the molar value.
Below, each entry is listed with its recorded pIC50.

CCC1NC(=O)C(C2OC(Oc3cccc(OCc4cccnc4)c3)CC2C)N(C)C(=O)C(C(C)C)N(C)C(=O)C(CC(C)C)N(C)C(=O)C(CC(C)C)N(C)C(=O)C(C)NC(=O)C(C)NC(=O)C(CC(C)C)N(C)C(=O)C(C(C)C)NC(=O)C(CC(C)C)N(C)C(=O)CN(C)C1=O (stereo not shown) [53A + B(1:1.5)-o]    4.00 to 6.00
CCC1NC(=O)C(C2OC(OCc3cc(Cl)c(F)cc3Cl)CC2C)N(C)C(=O)C(C(C)C)N(C)C(=O)C(CC(C)C)N(C)C(=O)C(CC(C)C)N(C)C(=O)C(C)NC(=O)C(C)NC(=O)C(CC(C)C)N(C)C(=O)C(C(C)C)NC(=O)C(CC(C)C)N(C)C(=O)CN(C)C1=O (stereo not shown)    4.00 to 6.00
CCC1NC(=O)C(C2OC(SCc3cccc(S(=O)(=O)NCC(C)C)c3)CC2C)N(C)C(=O)C(C(C)C)N(C)C(=O)C(CC(C)C)N(C)C(=O)C(CC(C)C)N(C)C(=O)C(C)NC(=O)C(C)NC(=O)C(CC(C)C)N(C)C(=O)C(C(C)C)NC(=O)C(CC(C)C)N(C)C(=O)CN(C)C1=O (stereo not shown) [Compound 76A-s]    4.00 to 6.00

Now examine the next entry.
pIC50 lookup needed for CCC1NC(=O)C(C2OC(SCc3ccc(OCCN(C)C)cc3)CC2C)N(C)C(=O)C(C(C)C)N(C)C(=O)C(CC(C)C)N(C)C(=O)C(CC(C)C)N(C)C(=O)C(C)NC(=O)C(C)NC(=O)C(CC(C)C)N(C)C(=O)C(C(C)C)NC(=O)C(CC(C)C)N(C)C(=O)CN(C)C1=O (stereo not shown) [Compound 87A-s] , thanks.
4.00 to 6.00
